The reader will find reported IC50 values listed item by item below.
- assay-system: Enoyl-[acyl-carrier-protein] reductase [NADPH] FabI (Staphylococcus aureus)
- Sequence (Q6GI75 whole entry): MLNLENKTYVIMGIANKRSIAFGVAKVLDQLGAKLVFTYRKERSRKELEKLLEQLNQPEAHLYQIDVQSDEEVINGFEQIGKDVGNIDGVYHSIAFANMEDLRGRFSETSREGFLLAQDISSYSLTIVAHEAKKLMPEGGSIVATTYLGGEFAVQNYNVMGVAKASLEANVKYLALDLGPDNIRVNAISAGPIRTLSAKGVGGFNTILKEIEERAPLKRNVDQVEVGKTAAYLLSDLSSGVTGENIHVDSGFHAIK

compound	IC50
Cc1ccc(C(=O)N2CCc3c(n(Cc4ccc(O)cc4)c4ccccc34)C2)c(O)c1	120 nM
Nc1ccc(C(=O)N2CCc3c(n(Cc4ccc(O)cc4)c4ccccc34)C2)cc1	1000 nM
Cc1cc(O)c(C)c(O)c1C(=O)N1CCc2c(n(Cc3ccc(O)cc3)c3ccccc23)C1	> 50000 nM
O=C(c1ccc(Cl)cc1)N1CCc2c(n(Cc3ccc(O)cc3)c3ccccc23)C1	180 nM
CNc1ccc(C(=O)N2CCc3c(n(Cc4ccc(O)cc4)c4ccccc34)C2)cc1	2100 nM
Nc1ccc(Cn2c3c(c4ccccc42)CCN(C(=O)c2ccc(O)cc2)C3)cc1	670 nM
O=C(O)c1ccc(Cn2c3c(c4ccccc42)CCN(C(=O)c2ccc(O)cc2)C3)cc1	8700 nM
COc1ccc(C(=O)N2CCc3c(n(Cc4ccc(O)cc4)c4ccccc34)C2)cc1	370 nM
O=C(c1ccccc1)N1CCc2c(n(Cc3ccc(O)cc3)c3ccccc23)C1	490 nM
O=C(c1ccc(Cl)cc1Cl)N1CCc2c(n(Cc3ccc(O)cc3)c3ccccc23)C1	1800 nM
O=C(c1ccc(O)cc1)N1CCc2c(n(Cc3ccc(F)cc3)c3ccccc23)C1	250 nM
CS(=O)(=O)c1ccc(Cn2c3c(c4ccccc42)CCN(C(=O)c2ccc(O)cc2)C3)cc1	330 nM
COC(=O)c1ccc(C(=O)N2CCc3c(n(Cc4ccc(O)cc4)c4ccccc34)C2)cc1	2000 nM
O=C(c1ccc(O)cc1)N1CCc2c([nH]c3ccccc23)C1c1ccc(O)cc1 (stereo unspecified)	28100 nM
O=C(c1ccc(O)cc1)N1CCc2c(n(Cc3ccc(O)cc3)c3ccccc23)C1	110 nM
CCCCc1ccc(C(=O)N2CCc3c(n(Cc4ccc(O)cc4)c4ccccc34)C2)cc1	510 nM

These data points were gathered from ChEMBL document CHEMBL1133924.
